- System: HIV-1 HxB2 Env (HIV-1 HxB2, UniProt P04578 33-856)
- Assay procedure: cell-based or functional assay
Recorded endpoint: IC50, neutralization of HxB2 pseudovirus (µg/mL)

>>> data_value("H4K3_5M (antibody, V domains shown) VH: KVQLVQSGAELKKPWSSVRVSCKASGGEPESYAFNWVRQAPGQRLEWLGGIVPLVSSTNYAQRFRGRVTISADPETSTVYLEMTGLTSADTAVYFCAREGEGWFGRPLRAFEFWGQGTLVTVST VL: EIVLTQSPGTFALSPGERATLSCRASQSVSGGALAWYQQKAGQAPRLLIYDTSGRATGVPGRFSGSGSETDFSLTISRLEPEDFAVYYCQQYGTSQSTFGQGTRLETR")
3.72
>>> data_value("H4K3_SFS28EPE (antibody, V domains shown) VH: KVQLVQSGAELKKPWSSVRVSCKASGGEPESYAFNWVRQAPGQRLEWLGGIVPLVSSTNYAQRFRGRVTISADRSTSTVYLEMTGLTSADTAVYFCAREGEGWFGRPLRAFEFWGQGTLVTVST VL: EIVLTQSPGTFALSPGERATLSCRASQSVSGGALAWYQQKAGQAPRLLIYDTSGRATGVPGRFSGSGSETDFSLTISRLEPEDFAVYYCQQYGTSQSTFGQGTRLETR")
1.62
>>> data_value("PGZL1.H4K3 (antibody, V domains shown) VH: KVQLVQSGAELKKPWSSVRVSCKASGGSFSSYAFNWVRQAPGQRLEWLGGIVPLVSSTNYAQRFRGRVTISADRSTSTVYLEMTGLTSADTAVYFCAREGEGWFGRPLRAFEFWGQGTLVTVST VL: EIVLTQSPGTFALSPGERATLSCRASQSVSGGALAWYQQKAGQAPRLLIYGTSGRATGVPGRFSGSGSETDFSLTISRLEPEDFAVYYCQQYGTSQSTFGQGTRLETR")
0.099
>>> data_value("H4K3_RS73PE (antibody, V domains shown) VH: KVQLVQSGAELKKPWSSVRVSCKASGGSFSSYAFNWVRQAPGQRLEWLGGIVPLVSSTNYAQRFRGRVTISADPETSTVYLEMTGLTSADTAVYFCAREGEGWFGRPLRAFEFWGQGTLVTVST VL: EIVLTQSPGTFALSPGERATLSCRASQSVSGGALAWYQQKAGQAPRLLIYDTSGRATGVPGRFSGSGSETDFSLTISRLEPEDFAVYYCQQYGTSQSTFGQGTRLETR")
0.299
